These measurements were taken from patent US6057311A.

# TARGET: CCKA (Cavia porcellus)
# Construct: The pancreatata were removed from male guinea-pigs; from tissue; host or cells: pancreas of male Dunkin Hartley guinea pigs, membranes
# Sequence (Q63931 1-430): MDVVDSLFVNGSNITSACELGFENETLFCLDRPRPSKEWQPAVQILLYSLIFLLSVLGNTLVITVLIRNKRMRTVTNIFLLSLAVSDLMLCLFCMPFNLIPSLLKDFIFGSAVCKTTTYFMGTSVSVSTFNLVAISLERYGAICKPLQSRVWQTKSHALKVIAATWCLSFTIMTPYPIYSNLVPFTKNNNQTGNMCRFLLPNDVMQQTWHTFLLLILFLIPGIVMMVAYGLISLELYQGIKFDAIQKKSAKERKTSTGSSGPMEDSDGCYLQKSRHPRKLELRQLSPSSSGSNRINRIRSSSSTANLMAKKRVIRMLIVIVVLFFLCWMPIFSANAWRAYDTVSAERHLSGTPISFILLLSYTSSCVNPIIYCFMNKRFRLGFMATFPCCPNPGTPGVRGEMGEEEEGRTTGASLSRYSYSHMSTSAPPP
# TEST_NAME: CCKA binding assay, guinea pig pancreas membranes ([125I]-CCK8(S))
# CONDITION: [125I]-CCK8(S) 200 pM, 0.375 μM PD134,308, 150 min at 21±3° C., pH 7.2, read-out: pKi (Guinea pig pancreas) (converted)
Can you tell me log10 of Ki for the items I'm about to list?
A value of 2 here means Ki of 100 in µM, since values are log10.

Answered cases to consult:
{"MOLECULE": "CC(=O)N1[C@H](CC23CC4CC(CC(C4)C2)C3)C(=O)N(Cc2cccc(F)c2)c2ccccc2C(=O)C[C@H]1C(=O)NCC(=O)O", "log10 of Ki": 1.00}
{"MOLECULE": "CC(=O)N1[C@H](CC23CC4CC(CC(C4)C2)C3)C(=O)N(Cc2ccccc2)c2ccccc2C(=O)C[C@H]1C(=O)NCC(=O)O", "log10 of Ki": 1.00}
{"MOLECULE": "CC(=O)N1[C@H](CC23CC4CC(CC(C4)C2)C3)C(=O)N(Cc2ccccc2)c2ccccc2C(=O)C[C@H]1C(=O)NCC(=O)NS(C)(=O)=O", "log10 of Ki": 1.00}
{"MOLECULE": "O=C(O)CCC(=O)N1CCC(=O)c2ccccc2N(Cc2ccccc2)C(=O)C1CC12CC3CC(CC(C3)C1)C2 (racemic)", "log10 of Ki": 0.80}
{"MOLECULE": "CC(C)(C)OC(=O)CN1C(=O)CN(C(=O)OCc2ccccc2)CCC(=O)c2ccccc21", "log10 of Ki": 1.00}
{"MOLECULE": "CC(C)(C)OC(=O)CN1C(=O)CN(C(=O)Oc2ccccc2)CCC(=O)c2ccccc21", "log10 of Ki": 1.00}
{"MOLECULE": "Cc1cccc(NC(=O)N2CCC(O)c3ccccc3N(Cc3ccccc3)C(=O)C2)c1 (single isomer, unassigned; isomer 2)", "log10 of Ki": 0.00}
{"MOLECULE": "Cc1cccc(NC(=O)N2CCC(C)c3ccccc3N(Cc3ccccc3)C(=O)C2)c1 (stereo not drawn)", "log10 of Ki": -0.50}
{"MOLECULE": "CC(=O)N1[C@H](CC23CC4CC(CC(C4)C2)C3)C(=O)N(Cc2ccccc2)c2ccc(F)cc2C(=O)C[C@H]1C(=O)NCC(=O)O (relative stereo)", "log10 of Ki": 1.10}
{"MOLECULE": "CC(=O)N1[C@H](CC23CC4CC(CC(C4)C2)C3)C(=O)N(Cc2ccc(Cl)cc2)c2ccccc2C(=O)C[C@H]1C(=O)O", "log10 of Ki": 0.30}

Dear colleague, could you send me log10 of Ki for each of the items below? Thanks.
1. CC(=O)N1[C@H](CC23CC4CC(CC(C4)C2)C3)C(=O)N(C)c2ccccc2C(=O)C[C@H]1C(=O)NCC(=O)O
2. COc1cccc(NC(=O)N2CCCc3ccccc3N(CC(=O)OC(C)(C)C)C(=O)C2)c1
3. CC(=O)N1[C@H](CC(C)(C)C)C(=O)N(Cc2ccccc2)c2ccccc2C(=O)C[C@H]1C(=O)O
4. Cc1cccc(NC(=O)N2CCC(=O)c3ccccc3N(CC(=O)N3CCCC3)C(=O)C2)c1
5. CC(C)(C)OC(=O)CN1C(=O)CN(C(=O)Nc2ccc(Cl)c(Cl)c2)CCC(=O)c2ccccc21
6. CC(=O)N1[C@H](CC23CC4CC(CC(C4)C2)C3)C(=O)N(Cc2ccccc2)c2ccccc2C(=O)C[C@H]1C(=O)NCCC(=O)O
7. CC(=O)N1[C@H](CC23CC4CC(CC(C4)C2)C3)C(=O)N(Cc2ccccc2)c2ccccc2C(=O)C[C@H]1C(=O)N[C@H](C)C(=O)O
8. COc1ccc(CN2C(=O)[C@@H](CC34CC5CC(CC(C5)C3)C4)N(C(C)=O)[C@H](C(=O)Nc3cc(C(=O)O)cc(C(=O)O)c3)CC(=O)c3ccccc32)cc1

Result:
1: 1.00; 2: 0.00; 3: 1.20; 4: 0.70; 5: -1.30; 6: 1.00; 7: 0.80; 8: 0.80

Provide log10 of Ki for all items below, preserving their order.
1. CCOC(=O)CN1C(=O)CN(C(=O)Nc2cccc(C)c2)CCC(=O)c2ccccc21
2. CCC1CCN(C(=O)Nc2cccc(C)c2)CC(=O)N(Cc2ccccc2)c2ccccc21 (stereo not drawn)
3. CC(=O)N1[C@@H](C(=O)NCC(=O)O)CC(=O)c2ccccc2N(Cc2ccccc2)C(=O)[C@@H]1CC12CC3CC(CC(C3)C1)C2
4. C=C1CCN(C(=O)Nc2cccc(C)c2)CC(=O)N(Cc2ccccc2)c2ccccc21
5. CC(=O)N1[C@H](CC23CC4CC(CC(C4)C2)C3)C(=O)N(Cc2cccc(N)c2)c2ccccc2C(=O)C[C@H]1C(=O)O
6. CC(=O)N1[C@H](C(=O)O)CC(=O)c2ccccc2N(Cc2ccccc2)C(=O)[C@@H]1CC12CC3CC(CC(C3)C1)C2
7. CC1CCN(C(=O)Nc2ccc(Cl)c(Cl)c2)CC(=O)N(Cc2ccccc2)c2ccccc21 (stereo not drawn)

Result:
[0.50, -0.10, 0.70, -0.50, 0.80, 1.00, -0.80]

Dear reader, for each entry below, please note its log10 of Ki.
1. COc1cccc(CN2C(=O)[C@@H](CC34CC5CC(CC(C5)C3)C4)N(C(C)=O)[C@H](C(=O)O)CC(=O)c3ccccc32)c1
2. CC(=O)N1[C@H](CC23CC4CC(CC(C4)C2)C3)C(=O)N(Cc2ccc(F)cc2)c2ccccc2C(=O)C[C@H]1C(=O)NCC(=O)O

Result:
0.50
0.90
